experiment: activity coefficient (dimensionless); of the first substance listed, at infinite dilution; xn = mol fraction of the nth substance listed; conditions: 358.2 K; 101 kPa; Liquid; Chromatography; x1 = 0
Measured Parameter: activity coefficient
Numbers only.

Examples with their reported activity coefficient follow.
{"Molecule": "C=CCCCC [hex-1-ene] + CCCCn1cc[n+](C)c1.Cc1ccc(S(=O)(=O)[O-])cc1", "activity coefficient": 15.7}
{"Molecule": "CCCCCCCCC [nonane] + CCCCn1cc[n+](C)c1.Cc1ccc(S(=O)(=O)[O-])cc1", "activity coefficient": 71.3}
{"Molecule": "C=CCCCCC [1-heptene] + CCCCn1cc[n+](C)c1.Cc1ccc(S(=O)(=O)[O-])cc1", "activity coefficient": 21.5}
{"Molecule": "CCCO [propan-1-ol] + CCCCn1cc[n+](C)c1.Cc1ccc(S(=O)(=O)[O-])cc1", "activity coefficient": 0.437}

Hi! Can you tell me activity coefficient for each of these molecules?
1. CC(C)=O [acetone] + CCCCn1cc[n+](C)c1.Cc1ccc(S(=O)(=O)[O-])cc1
2. O [water] + CCCCn1cc[n+](C)c1.Cc1ccc(S(=O)(=O)[O-])cc1
3. COC(C)(C)C [2-methoxy-2-methylpropane] + CCCCn1cc[n+](C)c1.Cc1ccc(S(=O)(=O)[O-])cc1

Ans.
[1.45, 0.201, 7.58]
